# TARGET DESC: T1, human 5T4 oncofoetal antigen (human, UniProt Q13641 32-420)
# T1 construct: whole, on cells; also called hu 5T4; human 5T4 antigen
# T1 sequence (looked up): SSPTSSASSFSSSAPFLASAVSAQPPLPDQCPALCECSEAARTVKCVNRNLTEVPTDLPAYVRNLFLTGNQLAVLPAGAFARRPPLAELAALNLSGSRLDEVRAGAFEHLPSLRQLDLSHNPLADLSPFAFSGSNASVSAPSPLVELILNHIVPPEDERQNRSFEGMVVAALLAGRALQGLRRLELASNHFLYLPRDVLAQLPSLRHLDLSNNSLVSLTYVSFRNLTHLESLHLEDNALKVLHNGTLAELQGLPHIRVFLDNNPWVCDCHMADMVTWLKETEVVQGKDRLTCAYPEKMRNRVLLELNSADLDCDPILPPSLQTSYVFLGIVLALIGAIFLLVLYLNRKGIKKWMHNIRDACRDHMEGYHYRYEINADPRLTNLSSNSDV
# RUN DESCRIPTION: flow cytometry, CHOZN cells expressing hu 5T4
VALUE TYPE: EC50 (µg/mL)
One number for each entry, in µg/mL.

// solved cases for EC50 follow
BINDER: chimeric anti-5T4 monoclonal antibody 908 (antibody, human IgG1, V domains shown) VH: QSVEESGGRLVTPGTPLTLTCTVSGFSLSNFAMSWVRQAPGKGLEWIGIINGYGSIYYATWAKGRFTISKTSTTVDLKITSPTTEDTATYFCARGDAGRTYNHYFNIWGPGTLVTVSL VL: DVVMTQTPASVEAAVGGTVTIKCQASQSISSWLSWYQQKPGQRPKLLIYAASNLASGVPSRFKGSGSGTQFTLTISDLESDDAATYYCQQGYTSYNVDNAFGGGTEVVVK
OBSERVED MEASUREMENT: 0.23
//
BINDER: chimeric anti-5T4 monoclonal antibody 847 (antibody, human IgG1, V domains shown) VH: QSVEESGGRLVTPGTPLTLTCTVSGFSLSSYDMSWVRQAPGKGLEYIGYINSDGSAYYASWAKGRFTISKTSSTTVDLKITSPTTEDTATYFCARDAGSTYLYGMDPWGPGTLVTVSS VL: DVVMTQTPASVSEPVGGTVTINCQASQSIYSYLAWYQQKPGQRPKLLIYAASTLASGVSSRFKGSGSGTQFTLTISDLESADAATYYCQCTYYGGTFNTFGGGTEVVVK
OBSERVED MEASUREMENT: 0.22
//
BINDER: chimeric anti-5T4 monoclonal antibody 845 (antibody, human IgG1, V domains shown) VH: QSLEESGGRLVTPGTPLTLTCTVSGIDLSSYTMNWVRQAPGKGLEWIGVITSHNTYYASWAKGRFTISKTSTTVDLKITSPTTEDTATYFCARSNYGSTIYYMGGMDPWGPGTLVTVSS VL: DVVMTQTPASVSAAVGGTVTINCQASQSIGSYLAWYQHQPGQPPKLLIYSASTLESGVSSRFEGSRSGTEYTLTISDLDSADAATYYCQCTDYGASYLGAFGGGTEVVVK
OBSERVED MEASUREMENT: 0.2
//
BINDER: chimeric anti-5T4 monoclonal antibody 829 (antibody, human IgG1, V domains shown) VH: QSLEESGGRLVTPGTPLTLTCTASGFSLSSYDMSWVRQAPGKGLEYIGWINSDDGAYYANWAKGRFTISRTSTTVDLKITSPTTEDTATYFCARDAGSTYLYGLDPWGPGTLVTVSS VL: DVVMTQTPSSVSAGVGGTVTIKCQASQSISSYLAWYQQKPGQRPKLLIYAASTLASGVSSRFKGSGSGTEYTLTINDLESADAATYYCQCTYYGGTYNTFGGGTEVVVK
OBSERVED MEASUREMENT: 0.24

Turning to the following binder.
Query: Return reported EC50; argument: chimeric anti-5T4 monoclonal antibody 811 (antibody, human IgG1, V domains shown) VH: QSVEESGGRLVTPGTSLTLTCTASGFSLSTYAMIWVRQAPGKGLEWIGIINSSGYTYYANWAKGRFTISKTSTTVDLKITSPTTEDTATYFCARGNAGISYDVSFNLWGQGTLVTVSS VL: AYDMTQTPASVEAGVGGTVTINCQASESISSWLAWYQQKPGQPPNLLIYEASKLASGVPSRFSGSGSGTEFTLTISGVESADAATYYCQQGWTSSNIDNAFGGGTEVVVK
Result: 0.34
